Some compounds, each annotated with its measured inhibition.
testName: Jurkat cell viability reduction – Jurkat E6.1, NIH starter set, primary screen (AID 364);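 note: 100% = cells treated with 4 µM doxorubicin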
assayConditions: Jurkat E6.1 viability, ATP luminescence, 48 h; at 4 µM; hits give high values
About 50 (2%) of roughly 3,300 compounds were called active. These entries were drawn from the full list. Potency and affinity values are given separately.
Reply with just the number (in %).

Find the measured inhibition of COc1ccc2[nH]c3c(N4CCN(Cc5ccc6c(c5)OCO6)CC4)ncnc3c2c1 and report it. -0.5

Find the measured inhibition of COc1cc(NC(=O)NC(C)(C(F)(F)F)C(F)(F)F)cc(OC)c1OC and report it. -6.8

Find the measured inhibition of CC(=O)C1(C)OC(N)=C(C#N)C(c2ccccc2)C1(C#N)C#N (stereo not drawn) and report it. 5.6

Find the measured inhibition of COc1ccc(Nc2cc(C)nc3ccccc23)cc1 and report it. 6.3

Find the measured inhibition of CCc1ccc(NC(=O)CSC2=C(C#N)C(c3ccco3)C3=C(CCCC3=O)N2)cc1 (stereo not drawn) and report it. 3.5

Find the measured inhibition of COc1cc(C2C3C(=O)N(c4ccc(F)cc4)C(=O)C3ON2c2ccccc2)ccc1O (stereo not drawn) and report it. 2.1

Find the measured inhibition of Cc1ccc(NC(=O)CSC2=C(C#N)C(c3ccco3)C3=C(CCCC3=O)N2)cc1 (stereo not drawn) and report it. 6.6

Find the measured inhibition of NS(=O)(=O)c1ccc(-c2ccc(C=NC3CCS(=O)(=O)C3)o2)cc1 (stereo not drawn) and report it. 10.2

Find the measured inhibition of O=C(O)CCc1nn2cc(-c3ccccc3)nc2[nH]c1=O and report it. -5.8

Find the measured inhibition of Nc1nnnn1/N=C/c1ccco1 and report it. 8

Find the measured inhibition of COC(=O)C1=C(N)Oc2cc(C)oc(=O)c2C1c1ccncc1 (stereo not drawn) and report it. -9.1

Find the measured inhibition of CCN=C1SC(C(=O)Nc2ccc(Cl)c(Cl)c2)CC(=O)N1CC (stereo not drawn) and report it. -3.4

Find the measured inhibition of CCCOc1ccc(N2C(=O)CC(N(CCC)C(=O)CCC(=O)O)C2=O)cc1 (stereo not drawn) and report it. -0.8

Find the measured inhibition of COc1cccc(C2/C(=C(\O)c3ccc(OC)c(OC)c3)C(=O)C(=O)N2c2cc(C)on2)c1 (stereo not drawn) and report it. -14.4

###

testName: Jurkat cell viability reduction – Jurkat E6.1, NIH starter set, primary screen (AID 364);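 note: 100% = cells treated with 4 µM doxorubicin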
assayConditions: Jurkat E6.1 viability, ATP luminescence, 48 h; at 4 µM; hits give high values
Screen size: about 3,300 compounds; about 50 (2%) were called active. Not all results are given here. Entries with a potency or affinity are not part of this list.
Some compounds, each annotated with its measured inhibition.
Reply with just the number (in %).

Find the measured inhibition of COCc1cc(C)nc(SCC(=O)Nc2ccc(C)c(C)c2)c1C#N and report it. -5.4

Find the measured inhibition of COc1cccc(Cn2c(NCC(C)C)nc3c2c(=O)n(C)c(=O)n3C)c1 and report it. 10.8

Find the measured inhibition of OCCOCCNc1ncnc2c1cnn2-c1ccc(Cl)cc1 and report it. 3.8

Find the measured inhibition of CC(=O)c1c(OCC(=O)O)ccc2c(C)cc(=O)oc12 and report it. 6.9

Find the measured inhibition of COc1ccc2c(c1OC)C(=O)OC2C1c2c(cc3c(c2OC)OCO3)CCN1C (stereo unspecified) and report it. 2.6

Find the measured inhibition of COc1cccc(N2CCN(c3ncnc4c3[nH]c3ccccc34)CC2C)c1 (stereo unspecified) and report it. 22.3

Find the measured inhibition of CCCCNc1nc2c(c(=O)n(C)c(=O)n2C)n1Cc1cccc(OC)c1 and report it. 35.2

Find the measured inhibition of CCOc1ccc2nc(SCC(=O)Nc3ncccn3)[nH]c2c1 and report it. -1.3

Find the measured inhibition of O=C1C2CC=C(Cl)CC2C(=O)N1CNc1ccccn1 (stereo unspecified) and report it. -4.2

Find the measured inhibition of c1ccc(OCc2nn3c(-c4cccnc4)nnc3s2)cc1 and report it. -5.4

Find the measured inhibition of C=C(C)CC1N(c2cccc(OC)c2)C(=O)[C@@H]2C(C(=O)O)[C@H]3C=C[C@@]12O3 (stereo partly specified) and report it. 5.9

###

testName: Jurkat cell viability reduction – Jurkat E6.1, NIH starter set, primary screen (AID 364);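 note: 100% = cells treated with 4 µM doxorubicin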
assayConditions: Jurkat E6.1 viability, ATP luminescence, 48 h; at 4 µM; hits give high values
Out of some 3,300 compounds screened, about 50 (2%) were called active. A selection follows. Potency and affinity values are given separately.
observationType: inhibition (%)
Reply with just the number (in %).

> print(dat)
                                   compound  observationtype  reportedvalue
1         c1cncc(-c2nnc3sc(-c4ccco4)nn23)c1       inhibition            7.6
2  CCOC(=O)C1Cc2c([nH]c3ccccc23)C(C)N1 (stereo unspecified)       inhibition          -10.3
3  COc1cc(-c2nn3c(-c4cccnc4)nnc3s2)cc(OC)c1OC       inhibition            3.2
4  Cc1nc(SC2C=CS(=O)(=O)C2)n[nH]1 (stereo unspecified)       inhibition           -8.6
5  COc1cc(C2C(C#N)=C(N)Oc3cc(C)n(CCN4CCOCC4)c(=O)c32)cc(OC)c1OC (stereo unspecified)       inhibition           -2.9

Moving on to the next compound.
Find the measured inhibition of Cc1cc(-c2cc(-c3ccc(Cl)cc3)nc(N)c2C#N)co1 and report it. 7.7

###

Some molecules, each annotated with its measured inhibition.
testName: Jurkat cell viability reduction – Jurkat E6.1, NIH starter set, primary screen (AID 364);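 note: 100% = cells treated with 4 µM doxorubicin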
assayConditions: Jurkat E6.1 viability, ATP luminescence, 48 h; at 4 µM; hits give high values
Hit rate of the full screen: of about 3,300 compounds, about 50 (2%) were called active. Not all results are given here. Entries with a potency or affinity are not part of this list.
Reply with just the number (in %).

> print(dat)
                                   molecule  reportedvalue
1  CCSc1nnc(NC(=O)NC(CC)(C(F)(F)F)C(F)(F)F)s1          -11.5
2  N#CC1=C(N)NC(SCc2ccc(Cl)cc2)=C(C#N)C12CCCCC2            7.9
3    O=c1[nH]c2sc3c(c2c(=O)n1Cc1ccccc1)CCC3            1.3
4  CCOc1ccc(CC2CC(=O)NC2=O)cc1 (configuration not stated)           -9.7
5            Cn1c(=O)cc(NCc2ccccc2)[nH]c1=O           -8.6

Find the measured inhibition of CCOc1ccc(-c2nnc3sc(-c4ccccc4OC)nn23)cc1 and report it. 1.2

Find the measured inhibition of CCCCOC(=O)CSC1=C(C#N)C(c2ccc3c(c2)OCO3)CC(=O)N1 (configuration not stated) and report it. 6.5

Find the measured inhibition of CCOc1ccc(C2=Nn3c(nnc3-c3cccnc3)SC2)cc1 and report it. 2.1

Find the measured inhibition of NC(=O)c1cc(-c2ccccc2)nc(Oc2ccccc2)n1 and report it. 16.2

Find the measured inhibition of CC(=O)[C@H]1[C@@H]2C(=O)N(c3cccc(Cl)c3)C(=O)[C@@H]2[C@H]2c3ccccc3C=CN21 and report it. -1.9

Find the measured inhibition of CCC(NC(=O)Nc1nccs1)(C(F)(F)F)C(F)(F)F and report it. -5

Find the measured inhibition of CN1C2C=C3C(C#N)=C(N)C(C#N)(C#N)[C@@H](c4ccc(Cl)cc4)[C@@H]3C1CC2 (some centres not stated) and report it. 1.6

Find the measured inhibition of CCc1nc(N2CCCC2)c(C#N)c2c1CCCC2 and report it. 2.4

Find the measured inhibition of COc1ccc(C(O)C(CN2CCOCC2)c2ccccc2)cc1 (configuration not stated) and report it. -2.1

Find the measured inhibition of CCOc1cccc(NC(=O)C2CC(=O)NC(=Nc3ccccc3)S2)c1 (configuration not stated) and report it. 15.4

Find the measured inhibition of Nc1ccc2oc3ncccc3c(=O)c2c1 and report it. -1.7

Find the measured inhibition of COc1cccc(C2C(C#N)=C(N)Oc3cc(C)[nH]c(=O)c32)c1OC (configuration not stated) and report it. 7.3

Find the measured inhibition of O=C(NCC(F)(F)F)Nc1nnc(C(F)(F)F)s1 and report it. -6.7

Find the measured inhibition of O=C(O)CC(C(=O)OCC1CCCO1)N1CCOCC1 (configuration not stated) and report it. 11.6

Find the measured inhibition of CC(NC(=O)Nc1nccs1)(C(F)(F)F)C(F)(F)F and report it. -6.2

Find the measured inhibition of COc1ccc(C2=Nn3c(nnc3-c3ccccn3)SC2)cc1OC and report it. 2.3

###

Some compounds, each annotated with its measured inhibition.
testName: Jurkat cell viability reduction – Jurkat E6.1, NIH starter set, primary screen (AID 364);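 note: 100% = cells treated with 4 µM doxorubicin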
assayConditions: Jurkat E6.1 viability, ATP luminescence, 48 h; at 4 µM; hits give high values
Out of some 3,300 compounds screened, about 50 (2%) were called active. Only a sample is shown. Measured potencies and affinities stand elsewhere.

// solved cases for inhibition follow
> print(dat)
                                    compound      reportedvalue
 1    Clc1ccc(-n2ncc3c(NCc4ccccn4)ncnc32)cc1    5.5% (inactive)
 2  CCN(CC)C(=O)CSC1=C(C#N)C(c2ccco2)C(C(=O)OCCOC)=C(C)N1 (centres undefined)   -2.1% (inactive)
 3  Fc1ccc2[nH]c3c(N4CCN(c5ccccc5)CC4)ncnc3c2c1   28.7% (inactive)
 4  CCc1ccccc1NC(=O)CSC1=C(C#N)C(c2ccc(O)c(OC)c2)C2=C(CCCC2=O)N1 (centres undefined)   -3.3% (inactive)
 5  COc1cccc(C2=CC(c3ccc(N(C)C)cc3)n3nnnc3N2)c1 (centres undefined)   -9.6% (inactive)
 6             O=C(c1coc(=O)c(Br)c1)N1CCOCC1    7.3% (inactive)
 7  COc1cccc(C2/C(=C(\O)c3ccc4c(c3)OCCO4)C(=O)C(=O)N2CCCN(C)C)c1OC (centres undefined)  -10.5% (inactive)
 8  Cc1csc(SCCn2c(Br)nc3c2c(=O)[nH]c(=O)n3C)n1   -4.7% (inactive)
 9  CN1CCN(c2c3c(c(C#N)c4nc5ccccc5n24)CCCC3)CC1    4.7% (inactive)
10  COCCOC(=O)C1=C(C)NC(SCC(=O)NC(C)(C)C)=C(C#N)C1c1ccco1 (centres undefined)    9.1% (inactive)

Find the measured inhibition of CCOC(=O)CNS(=O)(=O)c1cc(-c2nn(C)c(=O)c3ccccc23)ccc1C and report it. 1.1% (inactive)

Find the measured inhibition of CC(C(=O)N1CCOCC1)N1C(=O)c2ccccc2C1=O (centres undefined) and report it. -0.7% (inactive)
